experimental-target: human FGFR1c + KLB receptor complex on HEK293 iLite FGF21 reporter cells (human, UniProt P11362 22-822; Q86Z14 1-1044)
Sequence (P11362 22-822, chain 1 of 2): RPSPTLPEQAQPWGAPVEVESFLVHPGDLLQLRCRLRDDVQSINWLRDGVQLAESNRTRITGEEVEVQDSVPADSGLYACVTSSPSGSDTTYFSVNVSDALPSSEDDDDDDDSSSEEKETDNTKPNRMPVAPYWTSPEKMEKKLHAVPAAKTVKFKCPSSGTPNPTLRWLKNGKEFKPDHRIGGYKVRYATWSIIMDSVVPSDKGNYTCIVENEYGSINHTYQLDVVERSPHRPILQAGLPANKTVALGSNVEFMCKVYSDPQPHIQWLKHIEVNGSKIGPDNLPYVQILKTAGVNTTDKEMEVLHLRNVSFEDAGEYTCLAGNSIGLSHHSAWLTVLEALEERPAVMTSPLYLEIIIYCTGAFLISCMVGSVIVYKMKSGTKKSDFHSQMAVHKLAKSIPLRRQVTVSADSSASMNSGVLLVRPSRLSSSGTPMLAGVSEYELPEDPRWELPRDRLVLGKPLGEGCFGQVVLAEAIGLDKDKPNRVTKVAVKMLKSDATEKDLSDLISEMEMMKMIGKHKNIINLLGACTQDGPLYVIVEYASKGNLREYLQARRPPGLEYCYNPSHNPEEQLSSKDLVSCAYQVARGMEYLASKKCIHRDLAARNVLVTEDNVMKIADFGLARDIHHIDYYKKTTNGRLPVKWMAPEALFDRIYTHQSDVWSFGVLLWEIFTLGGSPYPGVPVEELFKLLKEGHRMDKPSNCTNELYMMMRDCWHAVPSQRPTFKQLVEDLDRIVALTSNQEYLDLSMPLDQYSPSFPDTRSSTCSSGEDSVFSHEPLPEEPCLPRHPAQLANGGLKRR
Sequence (Q86Z14 whole entry, chain 2 of 2): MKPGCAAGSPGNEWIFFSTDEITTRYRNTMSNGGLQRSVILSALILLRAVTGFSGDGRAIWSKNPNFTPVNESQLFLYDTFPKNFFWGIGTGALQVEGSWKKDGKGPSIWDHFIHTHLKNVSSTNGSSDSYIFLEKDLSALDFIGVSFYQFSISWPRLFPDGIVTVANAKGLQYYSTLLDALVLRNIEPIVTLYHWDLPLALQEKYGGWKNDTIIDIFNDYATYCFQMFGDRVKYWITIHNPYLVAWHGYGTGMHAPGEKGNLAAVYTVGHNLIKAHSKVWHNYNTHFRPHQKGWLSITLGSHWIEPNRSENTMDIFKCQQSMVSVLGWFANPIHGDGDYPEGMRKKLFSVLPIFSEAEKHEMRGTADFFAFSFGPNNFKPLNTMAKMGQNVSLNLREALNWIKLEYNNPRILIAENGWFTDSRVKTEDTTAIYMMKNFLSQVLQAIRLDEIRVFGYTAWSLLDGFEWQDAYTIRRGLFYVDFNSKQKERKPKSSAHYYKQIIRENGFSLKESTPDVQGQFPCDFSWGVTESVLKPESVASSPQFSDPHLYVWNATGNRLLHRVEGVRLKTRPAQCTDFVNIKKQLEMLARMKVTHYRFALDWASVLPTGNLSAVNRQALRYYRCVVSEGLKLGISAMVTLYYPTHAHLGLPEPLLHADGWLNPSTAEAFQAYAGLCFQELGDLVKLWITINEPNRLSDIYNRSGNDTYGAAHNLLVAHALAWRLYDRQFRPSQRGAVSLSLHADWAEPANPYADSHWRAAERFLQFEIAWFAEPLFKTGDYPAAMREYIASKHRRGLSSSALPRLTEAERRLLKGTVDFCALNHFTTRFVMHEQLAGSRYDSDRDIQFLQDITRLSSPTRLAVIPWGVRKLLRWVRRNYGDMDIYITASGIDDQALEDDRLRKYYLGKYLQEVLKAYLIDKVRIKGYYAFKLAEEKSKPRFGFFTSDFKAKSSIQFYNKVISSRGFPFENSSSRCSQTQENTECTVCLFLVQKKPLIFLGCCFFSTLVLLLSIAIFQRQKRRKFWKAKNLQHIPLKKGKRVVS
protocol-details: cell-based or functional assay
Below: a set of entries, each annotated with reported Emax.
Kindly answer with a numeric value in %, unit omitted.

Request: Record request: Emax value, item Ab0336 (antibody, IgG4, V domains shown) VH: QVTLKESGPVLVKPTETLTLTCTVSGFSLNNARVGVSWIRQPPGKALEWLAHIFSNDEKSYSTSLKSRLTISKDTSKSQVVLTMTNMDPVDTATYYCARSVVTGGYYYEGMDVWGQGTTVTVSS VL: SYVLTQPPSVSVAPGQTARITCGGSNIGSESVHWYQQKPGQAPVLVVYSHSDRPSGIPERFSGSNSGNTATLTISRVEAGDEADYYCQVWAGSSDHVVFGGGTKLTVLG
Response: 576

Next:
Request: # lookup: Emax of Ab0295 (antibody, IgG4, V domains shown, IgG4 PE) VH: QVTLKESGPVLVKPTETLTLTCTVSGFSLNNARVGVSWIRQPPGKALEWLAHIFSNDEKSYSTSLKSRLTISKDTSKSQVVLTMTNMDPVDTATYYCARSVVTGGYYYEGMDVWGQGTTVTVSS VL: SYVLTQPPSVSVAPGQTARITCGGSNIGSESVHWYQQKPGQAPVLVVYYDSDRPSGIPERFSGSNSGNTATLTISRVEAGDEADYYCQVWDGNSDHVVFGGGTKLTVLG
Response: 1310

Request: # query: Emax of entry Ab0454 (antibody, IgG4, V domains shown) VH: QVTLKESGPVLVKPTETLTLTCTVSGFSLTNARVGVSWIRQPPGKALEWLAHIFSNDEKSYSTSLKSRLTISKDTSKSQVVLTMTNMDPVDTATYYCARSVVTGGYYYEGMDVWGQGTTVTVSS VL: SYVLTQPPSVSVAPGQTARITCGGSNIGSESVHWYQQKPGQAPVLVVYSESDRPSGIPERFSGSNSGNTATLTISRVEAGDEADYYCQVWEGESDHVVFGGGTKLTVLG
Response: 1390

Request: Recorded Emax of Ab0309 (antibody, IgG4, V domains shown, IgG4 PE) VH: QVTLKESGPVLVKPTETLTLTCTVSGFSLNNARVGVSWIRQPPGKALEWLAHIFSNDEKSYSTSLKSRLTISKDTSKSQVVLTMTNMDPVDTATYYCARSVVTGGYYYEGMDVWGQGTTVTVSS VL: SYVLTQPPSVSVAPGQTARITCGGNNIGSESVHWYQQKPGQAPVLVVYDESDRPSGIPERFSGSNSGNTATLTISRVEAGDEADYYCQVWDGESDHVVFGGGTKLTVLG , please.
Response: 1210

Request: Need Emax of Ab0306 (antibody, IgG4, V domains shown, IgG4 PE) VH: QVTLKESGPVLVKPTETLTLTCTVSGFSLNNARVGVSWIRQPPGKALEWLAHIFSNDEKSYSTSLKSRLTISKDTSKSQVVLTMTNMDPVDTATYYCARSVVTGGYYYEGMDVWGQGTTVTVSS VL: SYVLTQPPSVSVAPGQTARITCGGSNIGSESVHWYQQKPGQAPVLVVYDDSDRPSGIPERFSGSNSGNTATLTISRVEAGDEADYYCQVWDGESDHVVFGGGTKLTVLG , thanks.
Response: 1330
